# Test system: serum IgG anti-17-α-hydroxyprogesterone antibodies
# ASSAY_DETAILS: ELISA binding of IgG 17-α-hydroxyprogesterone antibodies to different hormones in solid phase
# Set-up: species or system human
# TEST_CONDITIONS: in comparison to 100% binding to 17-α-hydroxyprogesterone; over three sera
Kindly supply the reported IgG anti-17-α-hydroxyprogesterone binding values for the records listed here.

Some compounds with recorded IgG anti-17-α-hydroxyprogesterone binding:
# COMPOUND, VALUE
data = [
    ("CC(=O)[C@@]1(O)CC[C@H]2[C@@H]3CCC4=CC(=O)CC[C@]4(C)[C@H]3CC[C@@]21C [HP, 17-α-hydroxy-progesterone]", "100%"),
    ("C[C@]12CCC(=O)C=C1CC[C@@H]1[C@@H]2[C@@H](O)C[C@@]2(C)[C@H]1CC[C@]2(O)C(=O)CO [HC, Hydrocortisone]", "39-53%"),
]

Determine its reported IgG anti-17-α-hydroxyprogesterone binding: CC(=O)[C@H]1CC[C@H]2[C@@H]3CCC4=CC(=O)CC[C@]4(C)[C@H]3CC[C@]12C
69-77%

###

# Test system: serum IgE anti-17-α-hydroxyprogesterone antibodies
# ASSAY_DETAILS: ELISA binding of IgE 17-α-hydroxyprogesterone antibodies to different hormones in solid phase
# Set-up: species or system human
# TEST_CONDITIONS: sample 2; relative to 17-α-hydroxyprogesterone = 100
QUANTITY_MEASURED: IgE % reaction (%)
One number for each entry, in %.

Some compounds with recorded IgE % reaction:
# COMPOUND, EXPERIMENTAL_TARGET, IgE % reaction [%]
records = [
    ("CC(C)CCC[C@@H](C)[C@H]1CC[C@H]2[C@@H]3CC=C4C[C@@H](O)CC[C@]4(C)[C@H]3CC[C@]12C", "serum IgE anti-17-α-hydroxyprogesterone antibodies", "−10"),
    ("CC(=O)[C@H]1CC[C@H]2[C@@H]3CCC4=CC(=O)CC[C@]4(C)[C@H]3CC[C@]12C", "serum IgE anti-17-α-hydroxyprogesterone antibodies", "−71"),
    ("CC(=O)[C@@]1(O)CC[C@H]2[C@@H]3CCC4=CC(=O)CC[C@]4(C)[C@H]3CC[C@@]21C [HP, 17-α-hydroxy-progesterone]", "serum IgE anti-17-α-hydroxyprogesterone antibodies", "−100"),
]

Next compound, IgE % reaction to be filled in.
Determine its reported IgE % reaction: C[C@]12CCC(=O)C=C1CC[C@@H]1[C@@H]2[C@@H](O)C[C@@]2(C)[C@H]1CC[C@]2(O)C(=O)CO [HC, Hydrocortisone]
−50

###

# Tested on: serum IgG anti-17-α-hydroxyprogesterone antibodies
# ASSAY_DETAILS: ELISA binding of IgG 17-α-hydroxyprogesterone antibodies to different hormones in solid phase
# Parameters: species or system human
# TEST_CONDITIONS: sample 3; hormone in solid phase; 405 nm
# Method: The ELISA inhibition method was used to determine specificity and cross-reactivity between different hormones and to ensure the degree of human IgG, IgM and IgE estrogen or progesterone binding to estrogen or progesterone in solid phase. […] After shaking and incubation for 1 hr at room temperature, addition of enzyme labeled anti-human IgG, IgM or IgE, repeat of incubation, washing, and addition of substrate, color development was measured at 405 nm. […]
Kindly supply the reported IgG binding (optical density) values for the records listed here.
Answers are plain numbers.

# COMPOUND, IgG binding (optical density)
records = [
    ("CC(=O)[C@@]1(O)CC[C@H]2[C@@H]3CCC4=CC(=O)CC[C@]4(C)[C@H]3CC[C@@]21C [HP, 17-α-hydroxy-progesterone]", 0.68),
    ("C[C@]12CCC(=O)C=C1CC[C@@H]1[C@@H]2[C@@H](O)C[C@@]2(C)[C@H]1CC[C@]2(O)C(=O)CO [HC, Hydrocortisone]", 0.36),
    ("CC(=O)[C@H]1CC[C@H]2[C@@H]3CCC4=CC(=O)CC[C@]4(C)[C@H]3CC[C@]12C", 0.49),
]

Next compound, IgG binding (optical density) to be filled in.
Determine its reported IgG binding (optical density): CC(C)CCC[C@@H](C)[C@H]1CC[C@H]2[C@@H]3CC=C4C[C@@H](O)CC[C@]4(C)[C@H]3CC[C@]12C
0.17

###

Kindly supply the reported IgE binding (optical density) values for the records listed here.
# Test system: serum IgE anti-estrogen antibodies
# ASSAY_DETAILS: ELISA binding of IgE estrogen antibodies to different hormones in solid phase
# Set-up: species or system human
# TEST_CONDITIONS: sample 3; hormone in solid phase; 405 nm
# Procedure: The ELISA inhibition method was used to determine specificity and cross-reactivity between different hormones and to ensure the degree of human IgG, IgM and IgE estrogen or progesterone binding to estrogen or progesterone in solid phase. […] After shaking and incubation for 1 hr at room temperature, addition of enzyme labeled anti-human IgG, IgM or IgE, repeat of incubation, washing, and addition of substrate, color development was measured at 405 nm. […]
One number for each entry.

Some compounds with recorded IgE binding (optical density):
# COMPOUND, EXPERIMENTAL_TARGET, IgE binding (optical density)
rows = [
    ("CC(C)CCC[C@@H](C)[C@H]1CC[C@H]2[C@@H]3CC=C4C[C@@H](O)CC[C@]4(C)[C@H]3CC[C@]12C", "serum IgE anti-estrogen antibodies", 0.28),
    ("CC(=O)[C@@]1(O)CC[C@H]2[C@@H]3CCC4=CC(=O)CC[C@]4(C)[C@H]3CC[C@@]21C [HP, 17-α-hydroxy-progesterone]", "serum IgE anti-estrogen antibodies", 0.73),
    ("C[C@]12CCC(=O)C=C1CC[C@@H]1[C@@H]2[C@@H](O)C[C@@]2(C)[C@H]1CC[C@]2(O)C(=O)CO [HC, Hydrocortisone]", "serum IgE anti-estrogen antibodies", 0.25),
]

Next compound, IgE binding (optical density) to be filled in.
Determine its reported IgE binding (optical density): CC(=O)[C@H]1CC[C@H]2[C@@H]3CCC4=CC(=O)CC[C@]4(C)[C@H]3CC[C@]12C
0.62

###

Kindly supply the reported IgE binding (optical density) values for the records listed here.
# Test system: serum IgE anti-17-α-hydroxyprogesterone antibodies
# ASSAY_DETAILS: ELISA binding of IgE 17-α-hydroxyprogesterone antibodies to different hormones in solid phase
# Design: species or system human
# TEST_CONDITIONS: sample 1; hormone in solid phase; 405 nm
Numbers only.

# COMPOUND, VALUE
measured = [
    ("CC(=O)[C@@]1(O)CC[C@H]2[C@@H]3CCC4=CC(=O)CC[C@]4(C)[C@H]3CC[C@@]21C [HP, 17-α-hydroxy-progesterone]", 1.45),
    ("CC(=O)[C@H]1CC[C@H]2[C@@H]3CCC4=CC(=O)CC[C@]4(C)[C@H]3CC[C@]12C [Progesterone, progesterone]", 0.94),
    ("CC(C)CCC[C@@H](C)[C@H]1CC[C@H]2[C@@H]3CC=C4C[C@@H](O)CC[C@]4(C)[C@H]3CC[C@]12C [C, Cholesterol]", 0.2),
]

Next compound, IgE binding (optical density) to be filled in.
GET IgE binding (optical density) where system = serum IgE anti-17-α-hydroxyprogesterone antibodies and item = C[C@]12CCC(=O)C=C1CC[C@@H]1[C@@H]2[C@@H](O)C[C@@]2(C)[C@H]1CC[C@]2(O)C(=O)CO [HC, Hydrocortisone]
0.58

###

Kindly supply the reported IgM % reaction values for the records listed here.
# Test system: serum IgM anti-estrogen antibodies
# ASSAY_DETAILS: ELISA binding of IgM estrogen antibodies to different hormones in solid phase
# Set-up: species or system human
# TEST_CONDITIONS: sample 3; relative to estrogen = 100
Write your answer as a measured quantity: the number, then the unit.

# MOLECULE, IgM % reaction
rows = [
    ("CC(=O)[C@@]1(O)CC[C@H]2[C@@H]3CCC4=CC(=O)CC[C@]4(C)[C@H]3CC[C@@]21C [HP, 17-α-hydroxy-progesterone]", "−45%"),
]

Dear colleague, could you please provide IgM % reaction for the molecules listed below?
1. C[C@]12CCC(=O)C=C1CC[C@@H]1[C@@H]2[C@@H](O)C[C@@]2(C)[C@H]1CC[C@]2(O)C(=O)CO [HC, Hydrocortisone]
2. CC(=O)[C@H]1CC[C@H]2[C@@H]3CCC4=CC(=O)CC[C@]4(C)[C@H]3CC[C@]12C [Progesterone, progesterone]

−18%
−34%

Determine its reported IgM % reaction: CC(C)CCC[C@@H](C)[C@H]1CC[C@H]2[C@@H]3CC=C4C[C@@H](O)CC[C@]4(C)[C@H]3CC[C@]12C [C, Cholesterol]
−18%
